- SYSTEM TESTED: T1, murine pro-myostatin (mouse, UniProt O08689 25-376, biotinylated (in the SPR assay))
- T1 construct: also called proGDF8 (mouse); mouse pro-myostatin
- PROCEDURE SUMMARY: SPR Biacore 8K, biotin-antigen captured

{"BINDER": "Ab128 (antibody, human IgG4 S228P, kappa, V domains shown) VH: EVQLVESGGGLVQPGGSLRLSCTASGFTLSSYSMDWVRQAPGKGLEWVSYITGSGDTTYYADSVKGRFTISRDNAKNTLYLQMNSLRAEDTAVYYCARGFGWISGWAEDYFDYWGQGTLVTVSS VL: DIQMTQSPSSLSASVGDRVTITCQASQSVYSYLNWYQQKPGKAPKLLIYGASRLEGGVPSRFSGSGSGTDFTFTISSLQPEDIATYYCQQHSTDQRTFGGGTKVEIKR", "UNITS OF MEASURE": "M⁻¹ s⁻¹", "kon": 914000}
{"BINDER": "Ab124 (antibody, human IgG4 S228P, kappa, V domains shown) VH: QVQLQESGPGLVKPSQTLSLTCTVSGGSISSSPYSWSWIRQPPGKGLEWIGYVDLAGSTDYNPSLKSRVTMSVDTSKNQFSLKVNSVTAADTAVYYCARALSSRSSEWLLDQYTMDVWGQGTTVTVSS VL: EIVMTQSPATLSLSPGERATLSCRASQSIGINLAWYQQKPGQAPRLLIYGVSNRATGIPARFSGSGSGTDFTLTISSLEPEDFAVYYCQQYGTARLTFGGGTKVEIKR", "UNITS OF MEASURE": "M⁻¹ s⁻¹", "kon": 139000}
